Test Target: Sterol 14-alpha demethylase (Trypanosoma cruzi (strain CL Brener)) (UniProt Q7Z1V1)
Sequence (Q7Z1V1 whole entry, looked up): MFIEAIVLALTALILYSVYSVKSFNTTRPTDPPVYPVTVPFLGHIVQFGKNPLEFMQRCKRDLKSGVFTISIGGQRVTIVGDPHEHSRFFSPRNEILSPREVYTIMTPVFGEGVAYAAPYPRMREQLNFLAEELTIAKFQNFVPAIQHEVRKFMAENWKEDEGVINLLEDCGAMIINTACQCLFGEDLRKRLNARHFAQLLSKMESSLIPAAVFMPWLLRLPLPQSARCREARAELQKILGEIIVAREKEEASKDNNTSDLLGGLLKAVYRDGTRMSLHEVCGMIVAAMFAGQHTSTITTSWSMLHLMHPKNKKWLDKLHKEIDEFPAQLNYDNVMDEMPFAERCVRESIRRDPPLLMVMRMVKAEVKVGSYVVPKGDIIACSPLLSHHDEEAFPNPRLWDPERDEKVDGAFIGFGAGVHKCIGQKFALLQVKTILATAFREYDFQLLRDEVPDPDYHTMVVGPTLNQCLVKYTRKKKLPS
Assay Summary: TcCYP51 inhibitors, dose response, mechanism study for T. cruzi antiparasitic project, biochemical, recombinant enzyme (AID 1159558);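 also: enzyme in bacterial membranes with Anopheles gambiae CYP reductase and cytochrome b5 partners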
Measurement Conditions: recombinant T. cruzi CYP51, BOMCC fluorescence
Active and inactive are the calls of the source.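 The calls were made as follows: active = IC50 against T. cruzi CYP51 below a set limit; inactive = the rest.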
API: response.call in T = active, F = inactive

Can you look up the reported call for `Cn1nc([N+](=O)[O-])nc1Oc1ccc(C(=O)c2ccccc2)cc1` for me? F

Can you look up the reported call for `COc1cccc(CN(C)Cc2nc(N)c3c(C)c(C)sc3n2)c1` for me? F

Can you look up the reported call for `CC(C)(C)Nc1nc(-c2ccccn2)nc2ccccc12` for me? F

Can you look up the reported call for Cc1nnnn1-c1cccc(C(=O)N2CCC[C@@]3(C)c4ncncc4CCC23)c1 (stereo partly specified) for me? T

Can you look up the reported call for `CC(C)CC(=O)Nc1cc(C2CC2)nn1-c1nc2c(c(=O)[nH]1)CCCC2` for me? F

Can you look up the reported call for Cc1ccc(Nc2nc(N)nc(CNC(c3nc4ccccc4[nH]3)C(C)C)n2)cc1 (stereo unspecified) for me? T

Can you look up the reported call for O=c1cc(NCCCNC2CCOc3c(I)cc(Cl)cc32)[nH]c2ccccc12 (stereo unspecified) for me? T

Can you look up the reported call for COc1ccc(C)cc1-c1csc(NC(=O)C(C)n2ccnc2)n1 (stereo unspecified) for me? T

Can you look up the reported call for `Cc1nc(C(=O)Nc2ccc3c(c2)OCO3)nn1-c1ccc(Cl)cc1` for me? T

Can you look up the reported call for O=C(Nc1nc(-c2ccccn2)cs1)C1CCc2ccccc2C1 (stereo unspecified) for me? T

Can you look up the reported call for CC(C)(C)C(Cn1ccnc1)NC(=O)c1ccc2nc(C3CC3)oc2c1 (stereo unspecified) for me? T

Can you look up the reported call for CC(C(=O)Nc1ccccc1F)N(C)CC(=O)Nc1cccc2ccccc12 (stereo unspecified) for me? T

Can you look up the reported call for CNC(=O)C1Cc2ccccc2N1C(=O)Cc1ccccc1 (stereo unspecified) for me? F

Can you look up the reported call for `O=C(Cn1cnc([N+](=O)[O-])n1)Nc1ccc(Cl)cc1C(=O)c1ccccc1` for me? T

Can you look up the reported call for `CCN(CC)c1ncc(C(=O)c2ccc([N+](=O)[O-])o2)s1` for me? T

Can you look up the reported call for `O=C(NCC1CCCCC1)c1cnns1` for me? F

====

Test Target: Sterol 14-alpha demethylase (Trypanosoma cruzi (strain CL Brener))
Assay Summary: TcCYP51 inhibitors, dose response, mechanism study for T. cruzi antiparasitic project, biochemical, recombinant enzyme (AID 1159558);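 also: enzyme in bacterial membranes with Anopheles gambiae CYP reductase and cytochrome b5 partners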
Measurement Conditions: recombinant T. cruzi CYP51, BOMCC fluorescence
Calls of active or inactive are those of the source.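 Rule for the calls: active = IC50 against T. cruzi CYP51 below a set limit; inactive = the rest.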
API: response.call in active, inactive

Can you look up the reported call for COc1ccc(C(C)N(C)c2ncc3c(N)nc(N)nc3n2)cc1F (centres undefined) for me? inactive

Can you look up the reported call for OC1CCC(Nc2nccc(-c3sc(C4CCOCC4)nc3-c3ccc(F)c(F)c3)n2)CC1 (centres undefined) for me? inactive

Can you look up the reported call for `CS(=O)(=O)c1ccc(CC(=O)Nc2nc(-c3ccc(Cl)s3)cs2)cc1` for me? inactive

Can you look up the reported call for `Cc1cc(NC(=O)CC2CCCCC2)n(-c2nc3c(c(=O)[nH]2)CCC3)n1` for me? inactive

Can you look up the reported call for `CCN(C)Cc1ccc(N2CCC(NS(=O)(=O)c3ccc4c(c3)CCO4)CC2)nc1` for me? inactive

Can you look up the reported call for `N#CN1CC[C@@H](NC(=O)Nc2ccccc2Oc2ccccc2)C1` for me? inactive

Can you look up the reported call for O=C1NCCn2ccc(Nc3nc(NC4CCC(O)CC4)ncc3Cl)c21 (centres undefined) for me? inactive

Can you look up the reported call for `Cc1occc1C(=O)Nc1ccccc1C(=O)Nc1nccs1` for me? inactive

Can you look up the reported call for `CN1CCN(c2nc(-c3ccc(Cl)cc3)c3c(N)n(C)nc3n2)CC1` for me? inactive

Can you look up the reported call for `CS(=O)(=O)N1CCC(Nc2ncc(Br)c(Nc3cccc(F)c3C(N)=O)n2)CC1` for me? inactive

Can you look up the reported call for `CCN(CC)c1nc(N(C)C)nc2c1CN(Cc1ccccc1)CC2` for me? active

Can you look up the reported call for `COc1cc(F)c2ncc(F)c(CCN3CC[C@H](NCc4cc5c(cn4)OCS5)[C@@H](O)C3)c2c1` for me? active

Can you look up the reported call for Cn1cncc1CN1CCC2(CC1)COC(Cc1ccccc1)C2 (centres undefined) for me? active

Can you look up the reported call for `O=c1ccn(-c2ccc([N+](=O)[O-])cc2Cl)c2ccc(F)cc12` for me? active

Can you look up the reported call for `CCC(=O)Nc1ccccc1C(=O)Nc1ccccn1` for me? inactive

Can you look up the reported call for COc1ccc(Nc2nc(-c3ccccn3)cc(N3CCCC(O)C3)n2)cc1 (centres undefined) for me? active

Can you look up the reported call for `Cn1ccnc1-c1nc(NCc2ccccc2Cl)cc(C2CC2)n1` for me? active

Can you look up the reported call for COc1ccccc1C=CCN1C[C@H]2CCC[C@@H](C1)C2(O)c1cccnc1 (some centres undefined) for me? active

Can you look up the reported call for `CCCCN(C(=O)c1ccc(NC(=O)C(C)C)cc1)c1ccccc1` for me? active

Can you look up the reported call for `COc1ccc(S(=O)(=O)NC(C)C)cc1Nc1ncc(-c2cccc(F)c2)cn1` for me? inactive

Can you look up the reported call for `Clc1ccc(CN2CCN(C3=NCCN3)CC2)cc1Cl` for me? inactive

Can you look up the reported call for `COc1ccc(-c2nc3ncccc3o2)cc1NC(=O)c1cccs1` for me? inactive

Can you look up the reported call for OCC1CCCCN1c1cc(-c2ccccn2)nc(Nc2ccccc2)n1 (centres undefined) for me? active

Can you look up the reported call for `COc1cc2c(cc1OC)[C@H]1[C@@H](C)c3ccc(OC)c(OC)c3CN1CC2` for me? active

Can you look up the reported call for `N#Cc1ccc(S(=O)(=O)N2CCN(Cc3cccc(-c4ccncc4)c3)CC2)cc1` for me? active

Can you look up the reported call for `Cc1ccc(NC(=O)c2ccnc(N3CCCC3)c2)cc1-c1ccsc1C(N)=O` for me? active

Can you look up the reported call for `O=C(CN(c1cccc(C(F)(F)F)c1)S(=O)(=O)c1ccc(Cl)cc1)NCc1ccc(F)c(F)c1` for me? active

Can you look up the reported call for `Cc1[nH]n2c(=O)c3c(nc2c1-c1ccc(Br)cc1)CCCC3` for me? inactive

Can you look up the reported call for `Oc1c(-c2n[nH]c(Cc3ccc(F)cc3)n2)ncc2cccnc12` for me? inactive

Can you look up the reported call for `N#Cc1cccc(CN2CCC(N(Cc3cccnc3)C(=O)c3cc(F)c(F)cc3F)CC2)c1` for me? active

Can you look up the reported call for `COc1cc(Cl)c(C)cc1NC(=O)c1ccc([N+](=O)[O-])s1` for me? active

Can you look up the reported call for `CCCc1cc(C(=O)Nc2ncc(-c3cccc(Br)c3)n2C)n[nH]1` for me? active

Can you look up the reported call for `O=S(=O)(c1cccc(CSc2nnc(-c3ccc4c(c3)OCO4)o2)c1)N1CCOCC1` for me? active

Can you look up the reported call for `Cc1ncsc1CNc1cnc(-c2ccc3c(c2)OCCO3)c(-c2cnn(C)c2)c1` for me? active

Can you look up the reported call for `COc1ccc2ncc(Cl)c(CCN3CC[C@H](NCc4cc5c(cn4)OCS5)[C@@H](O)C3)c2n1` for me? active

Can you look up the reported call for C=CCOCC1Cn2nc([N+](=O)[O-])nc2O1 (centres undefined) for me? inactive

Can you look up the reported call for `COc1ccc2ncc(F)c(CCN3CC[C@@H](NC(=O)c4cc5c(s4)CCC5)[C@@H](O)C3)c2n1` for me? active

Can you look up the reported call for `O=C(C1CCCCC1)N1CCN(c2nnc(-c3ccccc3)c3ccccc23)CC1` for me? inactive

Can you look up the reported call for O=C1CN(C2CCCc3c(OCc4ccncc4)cccc32)C(=O)N1C1CCCCC1 (centres undefined) for me? active

Reference source: PubChem BioAssay AID1159558
